Assay: qHTS assay to identify small molecule HDAC inhibitors - cell viability counter screen (AID 1259365); note: nearly all actives have a fitted effect of over 50% in size
Settings: HCT-116 viability, CellTiter-Glo ATP luminescence, 2 h; series mostly up to 92.4 µM
Activity calls are given as the source filed them. Calls come from the whole dose curve; as a rule, active = well fitted cell-killing curve with a large enough effect in the repeat runs; inconclusive = weak or mixed curves, or effect the other way; inactive = flat fitted curve, though single readings scatter.
I would appreciate it if you answered using one of these outcomes: active, inactive

Ask: Returns: the outcome recorded for COc1cc(CC(C)N)c(OC)cc1Br (configuration not stated) in this assay.
Result: inactive

Ask: Returns: the outcome recorded for C[C@H]1[C@@H]2Cc3ccc(O)cc3[C@@]1(C)CCN2C in this assay.
Result: inactive

Ask: Returns: the outcome recorded for [Cl-].[Cl-].[Hg+2] in this assay.
Result: active

Ask: Returns: the outcome recorded for CC(C)OC(=O)Cc1ccccc1 in this assay.
Result: inactive

Ask: Returns: the outcome recorded for C#CC(O)(C=CCl)CC (configuration not stated) in this assay.
Result: inactive

Ask: Returns: the outcome recorded for CN1C[C@H](C(=O)N[C@]2(C)O[C@@]3(O)[C@@H]4CCCN4C(=O)[C@H](Cc4ccccc4)N3C2=O)C=C2c3cccc4[nH]cc(c34)C[C@H]21 in this assay.
Result: inactive

Ask: Returns: the outcome recorded for O=C1CC[C@@]2(O)[C@H]3Cc4ccc(O)c5c4[C@@]2(CCN3CC2CC2)[C@H]1O5 in this assay.
Result: inactive

###

Target: Glucocorticoid receptor (Homo sapiens)
Test: qHTS assay to identify small molecule antagonists of the glucocorticoid receptor (GR) signaling pathway (AID 720692)
Settings: GR-bla HeLa, beta-lactamase FRET ratio, dexamethasone-stimulated, 18 h; series mostly up to 58.5 µM
Results filed as inconclusive are left out. Activity calls are given as the source filed them. The call rests on the fitted dose curve; in most records, active means well fitted inhibition curve with a large enough effect in the signal ratio in the repeat runs (not every such curve was filed as active); inconclusive means weak or mixed curves, or effect the other way; inactive means no such curve, though single readings can be large or run the other way; the % refers to the signal ratio.
I would appreciate it if you answered using one of these outcomes: t = active, f = inactive

Ask: Returns: the outcome recorded for O=C(Cl)OCCOCCOC(=O)Cl in this assay.
Result: f

Ask: Returns: the outcome recorded for FC(F)OC(F)(F)C(F)Cl (stereo unspecified) in this assay.
Result: f

Ask: Returns: the outcome recorded for CCC1(CC)C(=O)NC(=O)NC1=O in this assay.
Result: f

Ask: Returns: the outcome recorded for O=P(OCC(Br)CBr)(OCC(Br)CBr)OCC(Br)CBr (stereo unspecified) in this assay.
Result: t

Ask: Returns: the outcome recorded for CC(C)C1(C)N=C(c2ncccc2C(=O)O)NC1=O (stereo unspecified) in this assay.
Result: f

Ask: Returns: the outcome recorded for c1ccc2sc(SNC3CCCCC3)nc2c1 in this assay.
Result: f

###

Assay: qHTS assay to identify small molecule antagonists of the estrogen related receptor signaling pathway with the pleiotropic PPARgamma coactivator (PGC) from Tox21 10K library (AID 1224841); note: actives are mostly falling curves and most rising ones were filed inactive; nearly all actives have a fitted effect of over 50% in size
Conditions: PGC/ERR reporter cell line, ONE-Glo luciferase, 18 h; series mostly up to 92.4 µM
Description: U.S. Tox21 Program National Center for Advancing Translational Sciences [NCATS] NIH Chemical Genomics Center [NCGC] U.S. Environmental Protection Agency [EPA] National Institutes of Environmental Health Sciences [NIEHS] National Toxicology Program [NTP] U.S. Food and Drug Administration [FDA] Tox21 Assay Overview: Estrogen related receptors (ERRs), the first orphan nuclear receptors discovered, play an important role in the control of cellular energy metabolism. […]
Inconclusive results are not listed. Activity calls are given as the source filed them. How the calls were made is not given here.
I would appreciate it if you answered using one of these outcomes: y (active), n (inactive)

Solved cases below.
>>> category_label("CCOP(=S)(OCC)Oc1ccc(S(C)=O)cc1 (stereo not drawn)")
"n"
>>> category_label("Clc1ccc(Cl)c(Cl)c1")
"n"
>>> category_label("CCOP(=S)(S)OCC")
"n"
>>> category_label("COC1=CC(=O)O[C@@H](/C=C/c2ccc3c(c2)OCO3)C1")
"y"
>>> category_label("C[C@H]1[C@@H]2Cc3ccc(O)cc3[C@@]1(C)CCN2C")
"n"
>>> category_label("Oc1cccc(Cl)c1")
"n"
>>> category_label("C1CS1")
"y"
>>> category_label("CC(C)(C)NCC(O)c1ccccc1Cl (stereo not drawn)")
"n"

Ask: Returns: the outcome recorded for O=C=NC1CCCCC1 in this assay.
Result: n

Ask: Returns: the outcome recorded for N#CC(C#N)=C(C#N)C#N in this assay.
Result: y

Ask: Returns: the outcome recorded for CCCCCCCCn1sccc1=O in this assay.
Result: y

Ask: Returns: the outcome recorded for CC(=O)NNc1ccccc1 in this assay.
Result: n

Ask: Returns: the outcome recorded for CN(C)C(=O)Nc1cccc(OC(=O)NC(C)(C)C)c1 in this assay.
Result: n

Ask: Returns: the outcome recorded for CC(C)c1ccc(NC(=O)N(C)C)cc1 in this assay.
Result: n

Ask: Returns: the outcome recorded for C[CH2][Hg][S]c1ccccc1C(=O)O in this assay.
Result: n

Ask: Returns: the outcome recorded for O=C(O)c1ccc(=O)[nH]c1 in this assay.
Result: n

Ask: Returns: the outcome recorded for Clc1ccccc1 in this assay.
Result: n

Ask: Returns: the outcome recorded for COc1ccc(C(O)(c2cncnc2)C2CC2)cc1 (stereo not drawn) in this assay.
Result: n

Ask: Returns: the outcome recorded for CC(C)(C)OOC(C)(C)CCC(C)(C)OOC(C)(C)C in this assay.
Result: n

Ask: Returns: the outcome recorded for CCCCCCCCCCCCN(C)C in this assay.
Result: n

Ask: Returns: the outcome recorded for C[C@]12CC[C@H]3[C@@H](CCC4=CC(=O)CC[C@@H]43)[C@@H]1CC[C@@H]2OC(=O)CCc1ccccc1 in this assay.
Result: n

Ask: Returns: the outcome recorded for CN(C)c1ccc(N=O)cc1 in this assay.
Result: n

Ask: Returns: the outcome recorded for O=C(Cl)OCCOCCOC(=O)Cl in this assay.
Result: n

Ask: Returns: the outcome recorded for COc1cc(C[C@@H](C)N)c(OC)cc1Br in this assay.
Result: y

Ask: Returns: the outcome recorded for CCCCOC(=O)CCC(=O)OCCCC in this assay.
Result: n

Ask: Returns: the outcome recorded for CC(C)(C#N)C(C)(C)C#N in this assay.
Result: n
